B1: EPB41L3 (parent)
chain: FRFAPNHTKELEDKVIELHKSHRG

- Variants of: B1
- Assay Text: protein stability index of a GFP-peptide fusion (GPS, HEK-293T) (PSI 1-6); higher = more stable;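 note: lentivirally expressed fusions sorted by FACS into six bins by GFP to DsRed ratio, PSI derived from sequencing read proportions per bin multiplied by bin number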
- Condition Label: c terminus: a fixed tail appended
Param threshold (2) applies to protein stability index; output Criterion met when value >= threshold, Criterion not met when value < threshold.

Illustrative cases are given below, each with its answer.
V15H = Criterion met
K9M = Criterion not met
R23F = Criterion not met
F1W = Criterion met
A4D = Criterion met

Can E10M be said to have protein stability index at or above 2?
Criterion not met

Thanks! And R23H ?
Criterion not met

What about H7C ?
Criterion not met

Check F1I too.
Criterion met

// next record L11R
Criterion not met

Would you kindly repeat that for H7M ?
Criterion met

Do the same for H7R please
Criterion met
